From: patent US11279733B2

Parameter: MIC K. pneumoniae GN_106, PmxR. Scope: all listed entries.
- Test system: K. pneumoniae GN_106, PmxR
- REPORTED_CONDITIONS: GN 106, PmxR
Positions of bridges follow the written chain, without caps; N, C: chain ends. Non-standard residues stand in square brackets, D forms with d. Residues, ends and D or L forms follow the SMILES beside them. *: point of attachment. Decanoyl(3R-OH) = CCCCCCC[C@@H](O)CC(=O)*; dIgl = N[C@@H](C(=O)O)C1Cc2ccccc2C1; dDab = NCC[C@@H](N)C(=O)O; dDap = NC[C@@H](N)C(=O)O; Dab = NCC[C@H](N)C(=O)O

| MOLECULE | MIC K. pneumoniae GN_106, PmxR / mg/L |
| --- | --- |
| CCCCCCC[C@@H](O)CC(=O)N[C@H](CCN)C(=O)N[C@H]1CCNC(=O)[C@H](Cc2c[nH]c3ccccc23)NC(=O)[C@H](CCN)NC(=O)[C@H](CCN)NC(=O)[C@H](CC(C)C)NC(=O)[C@@H](Cc2ccccc2)NC(=O)[C@H](CCN)NC1=O [compound 6509] ({Decanoyl(3R-OH)}-[dDab][Dab][Dab][dF]L[Dab][Dab]W; lactam 2-C) | 4 |
| CCCCCCC[C@@H](O)CC(=O)N[C@H](CN)C(=O)N[C@H]1CCNC(=O)[C@H](CC(C)C)NC(=O)[C@H](CCN)NC(=O)[C@H](CCN)NC(=O)[C@H](C(C)C)NC(=O)[C@@H](Cc2ccccc2)NC(=O)[C@H](CCN)NC1=O [compound 9291] ({Decanoyl(3R-OH)}-[dDap][Dab][Dab][dF]V[Dab][Dab]L; lactam 2-C) | 32 |
| CCCCCCC[C@@H](O)CC(=O)N[C@H](CN)C(=O)N[C@H]1CCNC(=O)[C@H](Cc2c[nH]c3ccccc23)NC(=O)[C@H](CCCNC(=N)N)NC(=O)[C@H](CCCCN)NC(=O)[C@H](CC(C)C)NC(=O)[C@@H](C2Cc3ccccc3C2)NC(=O)[C@H](CCN)NC1=O [compound 8896] ({Decanoyl(3R-OH)}-[dDap][Dab][Dab][dIgl]LKRW; lactam 2-C) | 4 |
